molecular target: human P2X3 receptor (Homo sapiens (Human), UniProt P56373); assay: Evaluation of human P2X3 receptor inhibitory activity (Fluo-3 calcium fluorescence, FDSS 3000, ATP stimulation); type: cell-based; details: C6BU-1 cells stably expressing human P2X3 receptor;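 note: stimulus was 50 nM ATP with fluorescence followed for 3 min, and the response per well was peak post-ATP fluorescence divided by the reading at measurement start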
Sequence (P56373 whole entry): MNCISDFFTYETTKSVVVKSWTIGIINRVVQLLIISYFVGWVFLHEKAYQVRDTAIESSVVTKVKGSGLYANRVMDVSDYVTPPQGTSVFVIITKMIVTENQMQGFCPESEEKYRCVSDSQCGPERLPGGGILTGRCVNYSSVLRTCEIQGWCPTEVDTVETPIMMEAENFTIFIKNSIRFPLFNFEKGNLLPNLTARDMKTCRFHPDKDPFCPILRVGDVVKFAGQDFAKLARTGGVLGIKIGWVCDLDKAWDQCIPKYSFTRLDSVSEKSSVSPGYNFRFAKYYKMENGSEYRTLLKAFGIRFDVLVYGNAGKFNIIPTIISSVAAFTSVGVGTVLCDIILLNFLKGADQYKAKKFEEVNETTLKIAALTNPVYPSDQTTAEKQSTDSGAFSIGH
ENDPOINT: pIC50
API: returns pIC50 as number; meaning -log10 of concentration in mol/L.

Solved cases (2 shown):
COC(=O)[C@@H](C)Cn1c(=O)[nH]/c(=N\c2ccc(C(=O)C3CC3)cc2)n(Cc2ccc(C)cc2)c1=O [Compound I-1302] | 6.77
CCCCOc1ccc(/N=c2\[nH]c(=O)n(C[C@H](C)C(=O)OC)c(=O)n2Cc2ccc(Cl)cc2)cc1 [Compound I-0814] | 7.77

I'd like to know its pIC50. The molecule in question is CCn1c(=O)[nH]/c(=N\c2ccc(Oc3ccc(C(=O)O)cc3)cc2)n(Cc2ccc(Cl)cc2)c1=O [Compound I-1969]
7.68

// returns reported pIC50 for input Cc1ccc(Cn2c(=O)n(CCC(=O)O)c(=O)[nH]/c2=N\c2ccc(OC(C)C)cc2C)cc1 [Compound I-2048]
6.31

For COC(=O)[C@@H](C)Cn1c(=O)[nH]/c(=N\c2ccc(OC3CCC3)cc2)n(Cc2ccc(Cl)cc2)c1=O [Compound I-1281] , what is its reported pIC50?
8.22

// lookup pIC50 for CC(C)Oc1ccc(/N=c2\[nH]c(=O)n(C[C@H](C)C(=O)O)c(=O)n2Cc2ccc(F)cc2)cc1Cl [Compound I-0630]
7.52

For the molecule CC(C)Oc1ccc(/N=c2\[nH]c(=O)n(CCNCCO)c(=O)n2Cc2ccc(Cl)cc2)cc1F [Compound I-2122] , what pIC50 is on record?
7.03
